target: VMAT-2 (Rattus norvegicus, UniProt Q01827); assay: Direct in vitro application of MPD to vesicular [3H]DA uptake; type: biochemical; design: purified striatal vesicles prepared from treated rats; from tissue; host or cells: striatum of male Sprague-Dawley rats (synaptic vesicles; P2, P3, S3 fractions); settings: in vitro direct application, n=3
Sequence (Q01827 whole entry): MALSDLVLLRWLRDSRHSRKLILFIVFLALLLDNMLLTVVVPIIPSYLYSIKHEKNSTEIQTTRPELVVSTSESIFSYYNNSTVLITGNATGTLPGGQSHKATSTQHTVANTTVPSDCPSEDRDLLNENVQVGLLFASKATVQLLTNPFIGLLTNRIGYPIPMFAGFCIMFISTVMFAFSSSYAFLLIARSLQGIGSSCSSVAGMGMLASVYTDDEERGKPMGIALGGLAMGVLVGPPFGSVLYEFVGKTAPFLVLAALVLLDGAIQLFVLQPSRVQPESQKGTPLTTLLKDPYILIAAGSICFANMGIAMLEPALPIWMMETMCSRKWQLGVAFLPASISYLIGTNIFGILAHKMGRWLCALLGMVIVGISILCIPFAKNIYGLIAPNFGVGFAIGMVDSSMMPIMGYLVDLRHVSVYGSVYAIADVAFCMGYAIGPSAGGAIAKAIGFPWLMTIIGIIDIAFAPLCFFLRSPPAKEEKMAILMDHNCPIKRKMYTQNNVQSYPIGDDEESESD
MEASUREMENT_TYPE: pIC50
Note on pIC50: it is the negative log10 of concentration, concentration in mol/L.

In: Entry COC(=O)C(c1ccccc1)C1CCCCN1 (stereo not shown) [MPD, methylphenidate] has what pIC50?
Out: 4.70
